# System: tet operator sequence
# measurement notes: β-galactosidase activity of a tetracycline-regulated promoter in transformed E. coli with revTetR, in the presence and absence of anhydrotetracycline (atc)
# Assay type: cell-based, Escherichia coli
# condition context: RevTetR isolate cultured in the absence of anhydrotetracycline (ATC)
β-Galactosidase Activity, Cultured Without ATC strictly less than 60 = 1. Otherwise -1.

[Q] I wonder whether TetRrev96/99-7: revTetR(BD) G96L V99K (protein, Modified tetracycline repressor, revTetR(BD) G96L V99K) MSRLDKSKVINSALELLNEVGIEGLTTRKLAQKLGVEQPTLYWHVKNKRALLDALAVEILARHHDYSLPAAGESWQSFLRNNAMSFRRALLRYRDLAKKHLGTRPDEKQYDTVETQLRFMTENGFSLRDGLYAISAVSHFTLGAVLEQQEHTAALTDRPAAPDENLPPLLREALQIMDSDDGEQAFLHGLESLIRGFEVQLTALLQIV has β-Galactosidase Activity, Cultured Without ATC below 60. Can you tell?
[A] 1

[Q] Lab note: confirm whether the reported β-Galactosidase Activity, Cultured Without ATC for this molecule is below 60, equality not counting. molecule: TetRrevAF7/1: revTetR(BD) Y93C G96R K98N (protein, Modified tetracycline repressor, revTetR(BD) Y93C G96R K98N) MSRLDKSKVINSALELLNEVGIEGLTTRKLAQKLGVEQPTLYWHVKNKRALLDALAVEILARHHDYSLPAAGESWQSFLRNNAMSFRRALLRCRDRANVHLGTRPDEKQYDTVETQLRFMTENGFSLRDGLYAISAVSHFTLGAVLEQQEHTAALTDRPAAPDENLPPLLREALQIMDSDDGEQAFLHGLESLIRGFEVQLTALLQIV
[A] -1

[Q] Determine if TetRrev6-51: revTetR(BD) A97T V99G (protein, Modified tetracycline repressor, revTetR(BD) A97T V99G) MSRLDKSKVINSALELLNEVGIEGLTTRKLAQKLGVEQPTLYWHVKNKRALLDALAVEILARHHDYSLPAAGESWQSFLRNNAMSFRRALLRYRDGTKGHLGTRPDEKQYDTVETQLRFMTENGFSLRDGLYAISAVSHFTLGAVLEQQEHTAALTDRPAAPDENLPPLLREALQIMDSDDGEQAFLHGLESLIRGFEVQLTALLQIV shows β-Galactosidase Activity, Cultured Without ATC strictly lower than 60.
[A] -1

[Q] Consider TetRrev6-25: revTetR(BD) Y93S D95E G102A (protein, Modified tetracycline repressor, revTetR(BD) Y93S D95E G102A) MSRLDKSKVINSALELLNEVGIEGLTTRKLAQKLGVEQPTLYWHVKNKRALLDALAVEILARHHDYSLPAAGESWQSFLRNNAMSFRRALLRSREGAKVHLATRPDEKQYDTVETQLRFMTENGFSLRDGLYAISAVSHFTLGAVLEQQEHTAALTDRPAAPDENLPPLLREALQIMDSDDGEQAFLHGLESLIRGFEVQLTALLQIV . Does its β-Galactosidase Activity, Cultured Without ATC lie strictly below 60?
[A] 1
